Target: UniProtKB P42336
Test: Biochemical PI3Kalpha assay (neomycin SPA, lipid phosphorylation)
Conditions: human recombinant GST-PI3K
Description: The efficacy of the compounds according to the invention in the inhibition of PI3K-induced lipid phosphorylation can be investigated in the following binding assay. […] After precipitation of the neomycin-coated PVT-SPA beads over 5 minutes at 1500×g, radioactive Ptdlns(3)P is quantified by scintillation counting in a Wallac Micro-Beta™ plate counter.
Parameter: IC50

**Q:** Field request: IC50 | item: Cn1cc(-c2cc(-c3cnc4[nH]ccc4n3)ccn2)n(-c2ccc(C(C)(C)C#N)cc2)c1=O
**A:** 100 to 10000 nM

**Q:** Please give the measured IC50 for this molecule: Cn1cc(-c2cc(-c3cnc4[nH]ccc4c3)ccn2)n(-c2ccc(N3CCNCC3)c(C(F)(F)F)c2)c1=O
**A:** 100 to 10000 nM

**Q:** Quick one: IC50 for CCN1CCN(c2ccc(-n3c(-c4cc(-c5cnc6[nH]ccc6c5)ccn4)cn(C)c3=O)cc2C(F)(F)F)CC1 ?
**A:** 100 to 10000 nM

**Q:** Bench note: what IC50 did COc1ccc(-c2ccnc(-c3c[nH]c(=O)n3-c3ccc(N4CCNCC4)c(C(F)(F)F)c3)c2)cn1 show?
**A:** 100 to 10000 nM

**Q:** Field request: IC50 | item: CN1CCN(c2ccc(-n3c(-c4cc(-c5cnc6[nH]ccc6c5)ccn4)cn(C)c3=O)cc2)CC1
**A:** 100 to 10000 nM

**Q:** So what does the record say about IC50 for CNCc1ccc(-c2ccnc(-c3cn(C)c(=O)n3-c3ccc(C(C)(C)C#N)cc3)c2)cn1 ?
**A:** > 10000 nM

**Q:** Form field: reported IC50 of Cn1cc(-c2cc(-c3cnc4[nH]ccc4c3)ccn2)n(-c2ccc(CC#N)cc2)c1=O
**A:** 0.1 to 100 nM

* * *

Would you kindly list IC50 for each of these compounds?
Target: DNA-PK protein complex (Homo sapiens)
Test: Biochemical DNA-PK assay (FlashPlate)

**Q:** Request the reported IC50 associated with N#CCc1ccc(-n2c(-c3cc(-c4cnc5[nH]ccc5c4)ccn3)c[nH]c2=O)cc1
**A:** 0.1 to 100 nM

**Q:** Bench note: what IC50 did CC(=O)N1CCN(c2ccc(-n3c(-c4cc(-c5cnc6[nH]ccc6c5)ccn4)cn(C)c3=O)cc2C(F)(F)F)CC1 show?
**A:** 0.1 to 100 nM

**Q:** GET /values?readout=IC50&item= Cn1cc(-c2cc(-c3cnc4[nH]ccc4c3)ccn2)n(-c2cccc(C#N)c2)c1=O
**A:** 0.1 to 100 nM

**Q:** Look up IC50 for this compound: Cn1cc(-c2cc(-c3ccc4ncncc4c3)ccn2)n(-c2ccc(C(C)(C)C#N)cc2)c1=O
**A:** 0.1 to 100 nM

**Q:** Entry under review: CN1CCN(c2ccc(-n3c(-c4cc(-c5cnc6[nH]c(C(C)(C)C)cc6c5)ccn4)cn(C)c3=O)cc2C(F)(F)F)CC1 . Reported IC50?
**A:** 0.1 to 100 nM

**Q:** Recorded IC50 of Cn1cc(-c2cc(-c3cnc(N)c(C#N)n3)ccn2)n(-c2ccc(C(C)(C)C#N)cc2)c1=O , please.
**A:** 100 to 10000 nM

**Q:** Quick one: IC50 for Cn1cc(-c2cc(-c3cnc4[nH]ccc4c3)ccn2)n(-c2ccc(F)c(C(F)(F)F)c2)c1=O ?
**A:** 0.1 to 100 nM

**Q:** Look up IC50 for this compound: Cn1cc(-c2cc(-c3cnc4[nH]cc(F)c4c3)ccn2)n(-c2ccc(F)c(C(F)(F)F)c2)c1=O
**A:** 100 to 10000 nM

**Q:** Which IC50 value is on record for CC(=O)N1CCN(c2ccc(-n3c(-c4cc(-c5ccc6[nH]ccc6c5)ccn4)cn(C)c3=O)cc2C(F)(F)F)CC1 ?
**A:** 100 to 10000 nM

**Q:** If you can, please state the reported IC50 value of Cn1cc(-c2cc(-c3ccncc3)ccn2)n(-c2ccc(C(C)(C)C#N)cc2)c1=O .
**A:** 0.1 to 100 nM

**Q:** Which IC50 reading was recorded for the compound Cn1cc(-c2cc(-c3cnc4[nH]ccc4c3)ccn2)n(-c2ccc(C(C)(C)C(=O)O)cc2)c1=O ?
**A:** 0.1 to 100 nM

**Q:** What value of measured IC50 is listed for Cn1cc(-c2cc(-c3cnc4[nH]c(C(C)(C)C)cc4c3)ccn2)n(-c2ccc(C(C)(C)C#N)cc2)c1=O ?
**A:** 0.1 to 100 nM

**Q:** Returns the measured IC50 for the input compound. Input: Cn1cc(-c2cc(-c3cnc4[nH]ccc4c3)ccn2)n(-c2ccc(N3CCNCC3)c(C(F)(F)F)c2)c1=O
**A:** 100 to 10000 nM

**Q:** I would be grateful if you could share the reported IC50 for Cn1cc(-c2cc(-c3ccnc4[nH]ccc34)ccn2)n(-c2ccc(C(C)(C)C#N)cc2)c1=O .
**A:** 0.1 to 100 nM

**Q:** Name the recorded IC50 for Cn1cc(-c2cc(-c3cnc4ccccc4c3)ccn2)n(-c2ccc(N3CCNCC3)c(C(F)(F)F)c2)c1=O .
**A:** 100 to 10000 nM

* * *

Would you kindly list IC50 for each of these compounds?
Biological target: PI3Kalpha (Homo sapiens)
Sequence (P42336 whole entry): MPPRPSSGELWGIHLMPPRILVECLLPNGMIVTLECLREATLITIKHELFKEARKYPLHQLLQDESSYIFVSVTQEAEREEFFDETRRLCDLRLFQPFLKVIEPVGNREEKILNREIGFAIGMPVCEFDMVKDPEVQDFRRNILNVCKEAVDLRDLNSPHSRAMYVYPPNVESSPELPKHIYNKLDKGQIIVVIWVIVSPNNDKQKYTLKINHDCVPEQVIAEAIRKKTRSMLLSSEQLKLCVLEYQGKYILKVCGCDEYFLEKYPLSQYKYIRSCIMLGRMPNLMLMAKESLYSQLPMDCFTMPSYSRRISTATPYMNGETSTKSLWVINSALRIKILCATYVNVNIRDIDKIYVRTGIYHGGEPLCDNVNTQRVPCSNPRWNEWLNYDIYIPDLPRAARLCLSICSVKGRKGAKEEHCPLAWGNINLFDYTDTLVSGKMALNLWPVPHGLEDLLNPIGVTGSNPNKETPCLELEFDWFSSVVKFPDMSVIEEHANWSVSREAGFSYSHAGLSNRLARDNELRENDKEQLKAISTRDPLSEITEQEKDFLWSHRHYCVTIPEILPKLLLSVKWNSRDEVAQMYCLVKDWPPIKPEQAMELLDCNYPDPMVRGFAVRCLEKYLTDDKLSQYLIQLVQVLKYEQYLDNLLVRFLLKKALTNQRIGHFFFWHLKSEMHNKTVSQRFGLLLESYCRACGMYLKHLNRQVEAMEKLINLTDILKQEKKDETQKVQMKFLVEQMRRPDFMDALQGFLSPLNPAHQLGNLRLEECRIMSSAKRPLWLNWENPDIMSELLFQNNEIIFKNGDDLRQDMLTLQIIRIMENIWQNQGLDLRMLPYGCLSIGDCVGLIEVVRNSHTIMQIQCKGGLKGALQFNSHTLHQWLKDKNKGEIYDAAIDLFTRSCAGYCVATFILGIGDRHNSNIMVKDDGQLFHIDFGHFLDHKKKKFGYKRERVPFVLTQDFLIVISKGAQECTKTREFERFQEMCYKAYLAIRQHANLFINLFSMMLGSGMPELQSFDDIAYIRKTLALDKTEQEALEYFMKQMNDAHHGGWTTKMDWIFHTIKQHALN
Sequence (P27986 whole entry partner): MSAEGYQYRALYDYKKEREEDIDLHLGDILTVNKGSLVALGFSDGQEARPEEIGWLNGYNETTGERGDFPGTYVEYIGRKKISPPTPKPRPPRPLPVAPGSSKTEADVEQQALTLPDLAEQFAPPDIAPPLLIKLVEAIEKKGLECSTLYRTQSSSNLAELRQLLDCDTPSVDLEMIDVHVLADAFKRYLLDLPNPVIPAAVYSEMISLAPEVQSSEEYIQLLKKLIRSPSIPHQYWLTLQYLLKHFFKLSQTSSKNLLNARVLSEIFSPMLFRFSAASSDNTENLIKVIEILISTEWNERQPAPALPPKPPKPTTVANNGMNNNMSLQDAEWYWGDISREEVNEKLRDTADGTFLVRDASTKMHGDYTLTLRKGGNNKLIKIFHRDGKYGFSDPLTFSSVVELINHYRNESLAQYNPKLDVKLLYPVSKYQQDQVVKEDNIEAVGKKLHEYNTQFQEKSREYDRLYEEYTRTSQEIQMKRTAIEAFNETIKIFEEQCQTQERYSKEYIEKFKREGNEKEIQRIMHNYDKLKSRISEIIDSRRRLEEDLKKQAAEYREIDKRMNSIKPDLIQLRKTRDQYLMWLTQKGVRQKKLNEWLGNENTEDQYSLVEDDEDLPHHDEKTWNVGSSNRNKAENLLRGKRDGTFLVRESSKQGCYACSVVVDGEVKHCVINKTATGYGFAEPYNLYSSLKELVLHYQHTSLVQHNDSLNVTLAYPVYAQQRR
Assay: Biochemical PI3Kalpha assay (neomycin SPA, lipid phosphorylation)
Conditions: human recombinant GST-PI3K

**Q:** Field request: IC50 | item: COc1ccc(Cn2c(-c3cc(-c4cnc(N)c(C(F)(F)F)c4)ccn3)cn(C)c2=O)cc1
**A:** 100 to 10000 nM

**Q:** Please report the recorded IC50 for Cc1cc2cc(-c3ccnc(-c4cn(C)c(=O)n4-c4ccc(N5CCN(C)CC5)c(C(F)(F)F)c4)c3)cnc2[nH]1 .
**A:** 100 to 10000 nM

**Q:** So what does the record say about IC50 for CCc1cc(-c2c[nH]c3ncc(-c4ccnc(-c5cn(C)c(=O)n5-c5ccc(C(C)(C)C#N)cc5)c4)cc23)nc(N)n1 ?
**A:** 100 to 10000 nM

**Q:** Reported IC50, compound Cn1cc(-c2cc(-c3cnc4[nH]ncc4c3)ccn2)n(-c2cccc(C#N)c2)c1=O : ____
**A:** 0.1 to 100 nM

**Q:** Give its IC50 value. Item: Cn1cc(-c2cc(-c3ccc(N)nc3)ccn2)n(-c2ccc(C(C)(C)C#N)cc2)c1=O
**A:** 0.1 to 100 nM

**Q:** Item under review: Cn1cc(-c2cc(-c3cnc4[nH]c(C(C)(C)C)cc4c3)ccn2)n(-c2ccc(C(C)(C)C#N)cc2)c1=O . Reported IC50?
**A:** 100 to 10000 nM

**Q:** Item under review: CC(C)(CN)c1ccc(-n2c(-c3cc(-c4cnc5ccccc5c4)ccn3)c[nH]c2=O)cc1 . Reported IC50?
**A:** 100 to 10000 nM

**Q:** Any idea what IC50 was measured for COc1ccc(-c2ccnc(-c3cn(C)c(=O)n3-c3ccc(C(C)(C)C#N)cc3)c2)cn1 ?
**A:** 100 to 10000 nM

**Q:** Requested read-out: IC50. Entry: Cn1cc(-c2cc(-c3cnc4ccccc4c3)ccn2)n(-c2ccc(N3CCNCC3)c(C(F)(F)F)c2)c1=O
**A:** 100 to 10000 nM

**Q:** Consider the compound shown here: CNc1ccc(-c2ccnc(-c3cn(C)c(=O)n3-c3ccc(C(C)(C)C#N)cc3)c2)cn1 What is its recorded IC50?
**A:** 100 to 10000 nM

**Q:** Record request: IC50 value, item Cn1cc(-c2cc(-c3c[nH]c4ncccc34)ccn2)n(-c2ccc(C(C)(C)C#N)cc2)c1=O
**A:** 100 to 10000 nM

**Q:** What measured IC50 goes with Cn1cc(-c2cc(-c3cnc(N)c(-c4ccccc4)c3)ccn2)n(-c2ccc(C(C)(C)C#N)cc2)c1=O ?
**A:** 0.1 to 100 nM

**Q:** Name the recorded IC50 for Cn1cc(-c2cc(-c3cnc4[nH]ccc4c3)ccn2)n(-c2ccc(N3CCN(S(C)(=O)=O)CC3)c(C(F)(F)F)c2)c1=O .
**A:** 100 to 10000 nM

**Q:** Record request: IC50 value, item Cn1cc(-c2cc(-c3cnc4[nH]ccc4c3)ccn2)n(-c2ccccc2)c1=O
**A:** 100 to 10000 nM

**Q:** Request the reported IC50 associated with CC(C)c1cccc(-n2c(-c3cc(-c4cnc5[nH]ccc5c4)ccn3)cn(C)c2=O)c1
**A:** 100 to 10000 nM

**Q:** Item Cn1cc(-c2cc(-c3cnc(N)c(C(F)(F)F)c3)ccn2)n(-c2ccc(F)c(C(F)(F)F)c2)c1=O has what recorded IC50?
**A:** 100 to 10000 nM

**Q:** Sample N#Cc1cccc(-n2c(-c3cc(-c4cnc5[nH]ccc5c4)ccn3)cn(C(F)F)c2=O)c1 — what was its IC50?
**A:** 100 to 10000 nM

**Q:** Query: IC50; subject: Cn1cc(-c2cc(-c3cnc4[nH]ccc4c3)ccn2)n(-c2ccccc2C(F)(F)F)c1=O
**A:** 100 to 10000 nM

**Q:** Could you share which IC50 value was measured for COc1cccc(-c2ccnc(-c3cn(C)c(=O)n3-c3ccc(C(C)(C)C#N)cc3)c2)c1 ?
**A:** 100 to 10000 nM

**Q:** Suppose we examine the compound Cn1cc(-c2cc(-c3ccc4[nH]ccc4c3)ccn2)n(-c2ccc(C(C)(C)C#N)cc2)c1=O ; what IC50 value has been reported?
**A:** 100 to 10000 nM

**Q:** GET /values?readout=IC50&item= Cn1cc(-c2cc(-c3cnc4[nH]ncc4c3)ccn2)n(-c2ccc(C(C)(C)C#N)cc2)c1=O
**A:** 0.1 to 100 nM

**Q:** If you can, please state the reported IC50 value of COc1cc(-c2ccnc(-c3cn(C)c(=O)n3-c3ccc(C(C)(C)C#N)cc3)c2)ccn1 .
**A:** 100 to 10000 nM

**Q:** Any idea what its IC50 is? The compound is CC(=O)Nc1ncc(-c2ccnc(-c3cn(C)c(=O)n3-c3cccc(C#N)c3)c2)cc1C(F)(F)F
**A:** 100 to 10000 nM

**Q:** I would be grateful if you could share the reported IC50 for Cc1nc2cc(-c3ccnc(-c4cn(C)c(=O)n4-c4ccc(C(C)(C)C#N)cc4)c3)cnc2[nH]1 .
**A:** 0.1 to 100 nM

**Q:** If you can, please state the reported IC50 value of CN1CCN(c2ccc(-n3c(-c4cc(-c5cnc6[nH]c(C(F)(F)F)cc6c5)ccn4)cn(C)c3=O)cc2C(F)(F)F)CC1 .
**A:** 100 to 10000 nM

**Q:** Field request: IC50 | item: CN1CCN(c2ccc(-n3c(-c4cc(-c5ccc6[nH]ccc6c5)ccn4)cn(C)c3=O)cc2C(F)(F)F)CC1
**A:** 100 to 10000 nM

**Q:** Which value of IC50 has been reported for COc1ccc(-c2ccnc(-c3cn(C)c(=O)n3-c3ccc(C(C)(C)C#N)cc3)c2)cc1 in the records?
**A:** > 10000 nM

**Q:** Which value of IC50 has been reported for CC(C)(C#N)c1ccc(-n2c(-c3cc(-c4cnc5[nH]ccc5c4)ccn3)c[nH]c2=O)cc1 in the records?
**A:** 0.1 to 100 nM

**Q:** I am curious: what IC50 value has been reported for COC(=O)c1c[nH]c2ncc(-c3ccnc(-c4cn(C)c(=O)n4-c4ccc(C(C)(C)C#N)cc4)c3)cc12 ?
**A:** 0.1 to 100 nM
